test.protocol: LNP average particle size and polydispersity by dynamic light scattering
Type: physicochemical
test.context: Table 3, Experiments 1-13; LNP 50% ionizable lipid, 38% cholesterol, 9% DSPC, 3% PEG2K-DMG; sgRNA:mRNA 1:2
measured.metric: PDI

Example entries and their recorded answers appear below.
compound: CCCCC/C=C\C/C=C\CCCCCCCC(=O)OCC(CCCCCCCCC(=O)OC(CCCCCCCC)CCCCCCCC)COC(=O)OCCCN(CC)CC (stereo not drawn) [Compound 9]
PDI: 0.03
--
compound: CCCCC/C=C\C/C=C\CCCCCCCC(=O)OCC(CCCCC(=O)OC(CCCC)CCCC)COC(=O)NCCN(CC)CC (stereo not drawn) [Compound 12]
PDI: 0.03
--
compound: CCCCC/C=C\C/C=C\CCCCCCCC(=O)OCC(CCCCCCCCC(=O)OCC(CCCC)CCCCCC)COC(=O)OCCCN(CC)CC (stereo not drawn) [Compound 7]
PDI: 0.03

I = CCCCCCCCC(CCCCCCCC)OC(=O)CCCCCCC(=O)OCC(COC(=O)CCCCCCC(=O)OC(CCCCCCCC)CCCCCCCC)COC(=O)NCCN(CC)CC [Compound 52]
II = CCCCC/C=C\C/C=C\CCCCCCCC(=O)OCC(CCCCCCCCC(=O)OC(CCCCCCCC)CCCCCCCC)COC(=O)OCCCN(C)CC (stereo not drawn) [Compound 11]
III = CCCCCCCCOC(CCC(=O)OCC(COC(=O)CCC(OCCCCCCCC)OCCCCCCCC)COC(=O)NCCN(CC)CC)OCCCCCCCC [Compound 22]
Give the ascending ranking of the items by reported PDI. Present the labels in the sequence the task asks for. III, II, I
(III: 0, II: 0.02, I: 0.03)

====

test.protocol: LNP average particle size and polydispersity by dynamic light scattering
Type: physicochemical
test.context: Table 3, Experiments 1-13; LNP 50% ionizable lipid, 38% cholesterol, 9% DSPC, 3% PEG2K-DMG; sgRNA:mRNA 1:2
Source text: Dynamic Light Scattering (“DLS”) is used to characterize the polydispersity index (“pdi” or “PDI”) and size of the LNPs of the present disclosure. DLS measures the scattering of light that results from subjecting a sample to a light source. PDI, as determined from DLS measurements, represents the distribution of particle size (around the mean particle size) in a population, with a perfectly uniform population having a PDI of zero. […]
measured.metric: PDI

compound: CCCCCCCCC(CCCCCCCC)OC(=O)CCCC(=O)OCC(C)(COC(=O)CCCC(=O)OC(CCCCCCCC)CCCCCCCC)COC(=O)NCCN(CC)CC [Compound 36]
PDI: 0.056

I = CCCCCCCCC(CCCCCCCC)OC(=O)CCCCCCC(=O)OCC(COC(=O)CCCCCCC(=O)OC(CCCCCCCC)CCCCCCCC)COC(=O)OCCCN(CC)CC [Compound 60]
II = CCCCCCCCC(CCCCCCCC)OC(=O)CCCCCCC(COC(=O)CCCC(=O)OC(CCCCCCCC)CCCCCCCC)COC(=O)OCCCN(CC)CC (stereo not drawn) [Compound 8]
III = CCCCC/C=C\C/C=C\CCCCCCCC(=O)OCC(COC(=O)CCCC(=O)OC(CCCCCCCC)CCCCCCCC)COC(=O)N(C)CCN(CC)CC (stereo not drawn) [Compound 49]
IV = CCCCC/C=C\C/C=C\CCCCCCCC(=O)OCC(COC(=O)CCC(OCCCCCCCC)OCCCCCCCC)COC(=O)NCCN(CC)CC (stereo not drawn) [Compound 54]
Number of compounds to sort: 4. Sort criterion: PDI, ascending. Present the labels in the sequence the task asks for. IV, III, I, II
(IV: 0.003, III: 0.01, I: 0.02, II: 0.03)

====

test.protocol: LNP average particle size and polydispersity by dynamic light scattering
Type: physicochemical
test.context: Table 3, Experiments 1-13; LNP 50% ionizable lipid, 38% cholesterol, 9% DSPC, 3% PEG2K-DMG; sgRNA:mRNA 1:2
measured.metric: PDI

Known results for compounds:
compound: CCCCCCCCC(CCCCCCCC)OC(=O)CCCC(=O)OCC(COC(=O)CCCC(=O)OC(CCCCCCCC)CCCCCCCC)COC(=O)NCCN1CCCCC1 [Compound 28]
value.observed: 0.022
//
compound: CCCCCCCCCOC(=O)CCCCCCCN(CCO)CCCCCCCC(=O)OC(CCCCCCCC)CCCCCCCC [Compound 55]
value.observed: 0.05

a = CCCCC/C=C\C/C=C\CCCCCCCC(=O)OCC(CCCCCCCCC(=O)OC(CCCCCC)CCCCCC)COC(=O)OCCCN(CC)CC (stereo not drawn) [Compound 19]
b = CCCCC/C=C\C/C=C\CCCCCCCC(=O)OCC(CCCCCCCCC(=O)OC(CCCCCCCC)CCCCCCCCC)COC(=O)CCC(CCCC)OC(=O)NCCN1CCCC1 (stereo not drawn) [Compound 27]
a or b : whose PDI is greater? Kindly state the label of the option you pick. a

a = CCCCCCCCC(CCCCCCCC)OC(=O)CCCC(=O)OCC(COC(=O)CCCC(=O)OC(CCCCCCCC)CCCCCCCC)COC(=O)OCCCN1CCCC1 [Compound 33]
b = CCCCCCCCOC(CCC(=O)OCC(COC(=O)CC(CCCC)CCCCCC)COC(=O)OCCCN(CC)CC)OCCCCCCCC (stereo not drawn) [Compound 43]
Kindly identify the item with the lower PDI figure among these two: a and b Return value: the label identifying the chosen record. a
(a: 0.023, b: 0.04)

====

test.protocol: LNP encapsulation efficiency of RNA (Ribogreen fluorescence assay)
Assay type: physicochemical
test.context: LNP with 50% ionizable lipid, 38% cholesterol, 9% DSPC, 3% C13 Ether (LNP #1, Compound 53: 3% PEG2K-DMG instead); sgRNA:mRNA 1:2
Method: LNP compositions are analyzed for average particle size, polydispersity index (pdi), total RNA content, encapsulation efficiency of RNA, and zeta potential. […] Encapsulation efficiency is calculated as (Total RNA−Free RNA)/Total RNA. A fluorescence-based assay (Ribogreen®, ThermoFisher Scientific) is used to determine total RNA concentration and free RNA. Encapsulation efficiency is calculated as (Total RNA−Free RNA)/Total RNA. […] Total RNA and free RNA are determined from the appropriate standard curves. […]
measured.metric: % E (encapsulation efficiency) (%)

compound: CCCCCCCCC(CCCCCCCC)OC(=O)CCCC(=O)OCC(COC(=O)CCCC(=O)OC(CCCCCCCC)CCCCCCCC)COC(=O)OCCCN1CCCC1
% E (encapsulation efficiency) [%]: 99
//
compound: CCCCCCCCC(CCCCCCCC)OC(=O)CCCCCC(=O)OCC(COC(=O)CCCCCC(=O)OC(CCCCCCCC)CCCCCCCC)COC(=O)OCCCN1CCCC1
% E (encapsulation efficiency) [%]: 99
//
compound: CCCCCCCCC(CCCCCCCC)OC(=O)CCCC(=O)OCC(COC(=O)CCCC(=O)OC(CCCCCCCC)CCCCCCCC)COC(=O)NCCN(CC)CC
% E (encapsulation efficiency) [%]: 99
//
compound: CCCCCCCCC(CCCCCCCC)OC(=O)CCCCCCC(=O)OCC(CC)(COC(=O)CCCCCCC(=O)OC(CCCCCCCC)CCCCCCCC)COC(=O)NCCN(CC)CC
% E (encapsulation efficiency) [%]: 99
//
compound: CCCCCCCCC(CCCCCCCC)OC(=O)CCCCC(=O)OCC(COC(=O)CCCCC(=O)OC(CCCCCCCC)CCCCCCCC)COC(=O)NCCN(CC)CC
% E (encapsulation efficiency) [%]: 99
//
compound: CCCCCCCCC(CCCCCCCC)OC(=O)CCCCCCC(=O)OCC(CC)(COC(=O)CCCCCCC(=O)OC(CCCCCCCC)CCCCCCCC)COC(=O)OCCCN1CCCC1
% E (encapsulation efficiency) [%]: 99
//
compound: CCCCCCCCC(CCCCCCCC)OC(=O)CCCCCCC(=O)OCC(COC(=O)CCCCCCC(=O)OC(CCCCCCCC)CCCCCCCC)COC(=O)NCCN(CC)CC
% E (encapsulation efficiency) [%]: 97
//
compound: CCCCCCCCC(CCCCCCCC)OC(=O)CCCCCCC(=O)OCC(COC(=O)CCCCCCC(=O)OC(CCCCCCCC)CCCCCCCC)COC(=O)OCCCN1CCCC1
% E (encapsulation efficiency) [%]: 99
//
compound: CCCCC/C=C\C/C=C\CCCCCCCC(=O)OCC(COC(=O)CCC(OCCCCCCCC)OCCCCCCCC)COC(=O)OCCCN(CC)CC (stereo not drawn)
% E (encapsulation efficiency) [%]: 98

====

test.protocol: LNP average particle size and polydispersity by dynamic light scattering
Assay type: physicochemical
test.context: Table 3, Experiments 1-13; LNP 50% ionizable lipid, 38% cholesterol, 9% DSPC, 3% PEG2K-DMG; sgRNA:mRNA 1:2
measured.metric: Number mean (nm)

compound: CCCCCCCCC(CCCCCCCC)OC(=O)CCCCCCC(COC(=O)CCCC(=O)OC(CCCCCCCC)CCCCCCCC)COC(=O)OCCCN(CC)CC (stereo not drawn) [Compound 8]
value.observed: 64

compound: CCCCCCCCOC(CCC(=O)OCC(COC(=O)CC(CCCC)CCCCCC)COC(=O)OCCCN(CC)CC)OCCCCCCCC (stereo not drawn) [Compound 43]
value.observed: 75

compound: CCCCCCCCC(CCCCCCCC)OC(=O)CCCC(=O)OCC(COC(=O)CCCC(=O)OC(CCCCCCCC)CCCCCCCC)COC(=O)OCCCN(C)C [Compound 31]
value.observed: 59

compound: CCCCC/C=C\C/C=C\CCCCCCCC(=O)OCC(CCCCCCCCC(=O)OC(CCCCCCCC)CCCCCCCCC)COC(=O)CCC(CCCC)OC(=O)NCCN1CCCC1 (stereo not drawn) [Compound 27]
value.observed: 77

compound: CCCCC/C=C\C/C=C\CCCCCCCC(=O)OCC(CCCCCCCCC(=O)OC(CCCCCC)CCCCCC)COC(=O)OCCCN(CC)CC (stereo not drawn) [Compound 19]
value.observed: 66

compound: CCCCCCCCCOC(=O)CCCCCCCN(CCO)CCCCCCCC(=O)OC(CCCCCCCC)CCCCCCCC [Compound 55]
value.observed: 65
